- Tested on: C. elegans
- assay: microbe, parasite or virus in culture
- testContext: Caenorhabditis elegans, 24 h, read-out: Percentage of motility inhibition 24 h, Table S2, C. elegans SS assay, 110 μM, 24 h, averages of 4 data points
valueKind: inhibition at 110 µM (%)
Supply the numeric figure in %, leaving out any unit text.

Task: Quick one: inhibition at 110 µM for C[C@H]1[C@H](C)CC[C@]2(CO)CC[C@]3(C)C(=CC[C@@H]4[C@@]5(C)CC[C@H](O)C(C)(C)[C@@H]5CC[C@]43C)[C@H]12 ?
Result: 2

Task: inhibition at 110 µM for CC[C@]12C=CCN3CC[C@]4(C(=C(C(=O)OC)C1)Nc1ccccc14)[C@@H]32 ?
Result: 1

Task: GET /values?readout=inhibition at 110 µM&item= Oc1ccc2[nH]ccc2c1 [5‐Hydroxyindole]
Result: 9

Task: // lookup inhibition at 110 µM for C=C[C@]12CN(C)[C@@H]3[C@H]4CO[C@H](C[C@H]41)[C@]1(C(=O)Nc4ccccc41)[C@@H]32
Result: 0

Task: Looking for the measured inhibition at 110 µM of COc1ccc2c(c1OC)CN(C)c1c-2ccc2cc3c(cc12)OCO3 [Dihydrochelerythrine] , can you help?
Result: 7

Task: Quick one: inhibition at 110 µM of CC(C)(C)[C@]1(O)CC2OC(=O)CC23C(=O)OC2OC(=O)[C@H](O)C231 (stereo partly shown) [Bilobalide] ?
Result: 23

Task: Name the recorded inhibition at 110 µM for CC1=CC(=O)CC(C)(C)[C@@]1(O)/C=C/C(C)=C\C(=O)O [Abscisic acid] .
Result: 11

Task: Param item = COC(=O)C1=CO[C@@H](O)[C@@H]2C(CO)=CC[C@H]12 ; retrieve measured inhibition at 110 µM.
Result: 0

Task: Suppose we examine the molecule O=c1cc(-c2ccccc2)oc2cc(O)ccc12 [7‐Hydroxyflavone] ; what inhibition at 110 µM value has been reported?
Result: 0

Task: Given the molecule Cc1cncc(C)n1 , what is its reported inhibition at 110 µM?
Result: 0

Task: # input molecule: COc1cc([C@@H]2c3cc4c(cc3[C@@H](O[C@@H]3O[C@@H]5CO[C@@H](C)O[C@H]5[C@H](O)[C@H]3O)[C@H]3COC(=O)[C@H]23)OCO4)cc(OC)c1O [Etoposide] ; wanted: its inhibition at 110 µM
Result: 4

Task: Name the reported inhibition at 110 µM value associated with the molecule C=CC1=C(C(=O)O)N2C(=O)[C@@H](NC(=O)/C(=N\O)c3csc(N)n3)[C@H]2SC1
Result: 0

Task: Consider the molecule CC(=O)N1CCN(c2ccc(OCC3COC(Cn4ccnc4)(c4ccc(Cl)cc4Cl)O3)cc2)CC1 (stereo not shown) and give its measured inhibition at 110 µM.
Result: 0

Task: # query: inhibition at 110 µM of entry O=c1c(-c2ccc(O)cc2)coc2cc(O)ccc12
Result: 14

Task: State the recorded inhibition at 110 µM for this entry: Cc1cn([C@H]2C=C[C@@H](CO)O2)c(=O)[nH]c1=O
Result: 3

Task: Recorded inhibition at 110 µM of CC1(C)CC[C@]2(C(=O)O)CC[C@]3(C)C(=CC[C@@H]4[C@@]5(C)C[C@@H](O)[C@H](O)[C@@](C)(CO)[C@@H]5[C@H](O)C[C@]43C)[C@@H]2C1 , please.
Result: 10

###

- Test system: C. elegans
- testContext: Table S2, C. elegans SS assay, 110 μM, 0 h, averages of 4 data points
valueKind: Percentage of motility inhibition 0 h (%)
Use % as the unit, but write only the number.

Task: Consider the molecule C[C@@H]1O[C@@H](OC[C@H]2O[C@@H](Oc3c(-c4ccc(O)c(O)c4)oc4cc(O)cc(O)c4c3=O)[C@H](O)[C@@H](O)[C@@H]2O)[C@H](O)[C@H](O)[C@H]1O and give its measured Percentage of motility inhibition 0 h.
Result: 33

Task: Returns the measured Percentage of motility inhibition 0 h for the input molecule. Input: Cc1c2ccncc2c(C)c2c1[nH]c1ccccc12.Cl [Ellipticine (hydrochloride)]
Result: 9

Task: Fill in: Percentage of motility inhibition 0 h of NC1CCN(c2nc3c(cc2F)c(=O)c(C(=O)O)cn3-c2ccc(F)cc2F)C1 (stereo not shown) [Tosufloxacin (tosylate hydrate)] is ___
Result: 44

Task: Reported Percentage of motility inhibition 0 h, molecule CNCC(O)c1ccc(O)cc1.Cl (stereo not shown) [Synephrine (hydrochloride)] : ____
Result: 0

###

- System: C. elegans
- testContext: Table S2, C. elegans SS assay, 110 μM, 0 h, averages of 4 data points
valueKind: Percentage of motility inhibition 0 h (%)
Give just the number in %; leave the unit off.

Task: Look up Percentage of motility inhibition 0 h for this molecule: O=c1c2ccccc2nc2n1CC[C@@H]2O [Vasicinone]
Result: 0

Task: Fill in: Percentage of motility inhibition 0 h of CC(=O)O[C@H](C[C@@H](C)[C@H]1C(=O)[C@H](O)[C@@]2(C)[C@@H]3CC[C@H]4C(C)(C)[C@@H](O[C@@H]5OC[C@H](O)[C@H](O)[C@H]5O)CC[C@@]45C[C@@]35CC[C@]12C)[C@@H]1OC1(C)C [Acetylshengmanol Arabinoside] is ___
Result: 30

Task: Give the measured Percentage of motility inhibition 0 h of Cc1cc(O)c(C(=O)N[C@@H](C(=O)N[C@@H]2C(=O)N3C(C(=O)[O-])=C(CSc4nnnn4C)CS[C@H]23)c2ccc(O)cc2)cn1.[Na+] [Cefpiramide (sodium)] .
Result: 0

Task: # get_value(readout='Percentage of motility inhibition 0 h', item= C[C@@H]1O[C@@H](O[C@H]2C[C@@H](O)[C@]3(CO)[C@H]4[C@H](O)C[C@]5(C)[C@@H](C6=CC(=O)OC6)CC[C@]5(O)[C@@H]4CC[C@]3(O)C2)[C@H](O)[C@H](O)[C@H]1O.O.O.O.O.O.O.O.O [Ouabain (Octahydrate)] )
Result: 0

Task: So what's the measured Percentage of motility inhibition 0 h for this one? Oc1cc(O)c2ccc(-c3ccc(O)c(O)c3)[o+]c2c1.[Cl-] [Luteolinidin (chloride)]
Result: 29

Task: Would you mind telling me what Percentage of motility inhibition 0 h value was observed for Cn1cc[n+](C[C@@]2(C)[C@H](C(=O)[O-])N3C(=O)C[C@H]3S2(=O)=O)n1 [AAI101] ?
Result: 27

Task: Percentage of motility inhibition 0 h lookup needed for C[C@H]1CCC2N(C1)C[C@H]1C3CC4[C@@H](CC(=O)C5C[C@@H](O)CC[C@@]54C)C3CCC1[C@]2(C)O (stereo partly drawn) [Peiminine] , thanks.
Result: 0

Task: // Percentage of motility inhibition 0 h lookup, key: COc1c(O[C@@H]2O[C@H](C(=O)O)[C@@H](O)[C@H](O)[C@H]2O)cc(O)c2c(=O)cc(-c3ccccc3)oc12 [Wogonoside]
Result: 6

Task: Quick one: Percentage of motility inhibition 0 h of CC(C)(O)[C@@H]1CC[C@](C)([C@H]2[C@@H](O)C[C@@]3(C)[C@@H]4C[C@H](O)[C@H]5C(C)(C)[C@@H](O)CC[C@@]56C[C@@]46CC[C@]23C)O1 [Cycloastragenol] ?
Result: 8

Task: Please look up its Percentage of motility inhibition 0 h: Oc1ccc2c(c1)OC[C@H]1c3cc4c(cc3O[C@@H]21)OCO4 [(-)-Maackiain]
Result: 26

Task: Percentage of motility inhibition 0 h lookup needed for C[C@@]12C[C@H](c3ccoc3)O[C@@]13C[C@H](OC3=O)[C@H]1[C@H]2C[C@@H]2C[C@H]1C(=O)O2 [Diosbulbin B] , thanks.
Result: 0

Task: Report Percentage of motility inhibition 0 h for C[C@H](CCC(=O)NCCS(=O)(=O)[O-])[C@H]1CC[C@H]2[C@@H]3CC[C@@H]4C[C@H](O)CC[C@]4(C)[C@H]3C[C@H](O)[C@]12C.[Na+] [Taurodeoxycholic acid (sodium hydrate)] please.
Result: 8

###

Assignment: determine reported inhibition at 110 µM for the given molecules.
- Test system: C. elegans
- assay: microbe, parasite or virus in culture
- testContext: Caenorhabditis elegans, 24 h, read-out: Percentage of motility inhibition 24 h, Table S2, C. elegans SS assay, 110 μM, 24 h, averages of 4 data points
Numeric only. Scale: %

Task: Which inhibition at 110 µM is reported for this molecule? C=C1C[C@@]23CC[C@H]4[C@@](C)(CCC[C@@]4(C)C(=O)O[C@@H]4O[C@H](CO)[C@@H](O)[C@H](O)[C@H]4O)[C@@H]2CC[C@]1(O[C@@H]1O[C@H](CO)[C@@H](O)[C@H](O)[C@H]1O[C@@H]1O[C@H](CO)[C@@H](O)[C@H](O)[C@H]1O)C3 [Stevioside]
Result: 0

Task: Which inhibition at 110 µM value is on record for C/C(=C\C(=O)CC(C)C(=O)O)[C@H]1CC(=O)[C@@]2(C)C3=C(C(=O)C[C@]12C)[C@@]1(C)CC[C@H](O)C(C)(C)[C@@H]1C[C@@H]3O (some centres unmarked) ?
Result: 42

Task: What value of inhibition at 110 µM has been recorded for this entry: C=C[C@](C)(O)CC[C@@H]1[C@@]2(C)CCCC(C)(C)[C@@H]2CC[C@@]1(C)O
Result: 10

Task: Recorded inhibition at 110 µM of COC(=O)C[C@](O)(CCC(C)(C)O)C(=O)O[C@@H]1C(OC)=C[C@]23CCCN2CCc2cc4c(cc2[C@H]13)OCO4 , please.
Result: 0

Task: # input molecule: CC(C)OC(=O)[C@H](C)N[P@](=O)(OC[C@H]1O[C@@H](n2ccc(=O)[nH]c2=O)[C@](C)(F)[C@@H]1O)Oc1ccccc1 ; wanted: its inhibition at 110 µM
Result: 11
